Please go through the items and note down their selectivity ratio.
Test: Selectivity index, ratio of CC50 for human TZM-bl cells to EC50 for X4 tropic Human immunodeficiency virus 1 3B subtype B
Assay type: toxicity, cell-based
Settings: read-out: Ratio CC50/EC50
Answer as a number with no unit attached.

For the compound shown here, N#Cc1ccc(C2SCC(=O)N2c2ccc(C#N)cc2)cc1 (stereo not drawn) , give the reported selectivity ratio.
1.1

And the next one, COc1cccc(OC)c1C1SCC(=O)N1c1cc(C)on1 (stereo not drawn) ?
11

And the next one, Cc1cc(C)nc(N2C(=O)CSC2c2ccc(C#N)cc2)n1 (stereo not drawn) ?
0.97

And the next one, `Cc1ccnc2c1NC(=O)c1cccnc1N2C1CC1` ?
2060

And the next one, Cc1ccc(S(=O)(=O)NN2C(=O)CSC2c2c(F)cccc2Cl)cc1 (stereo not drawn) ?
2.15

And the next one, N#Cc1ccc(NN2C(=O)CSC2c2c(Cl)cccc2Cl)cc1 (stereo not drawn) ?
2.14

And the next one, COc1cc(OC)nc(N2C(=O)CSC2c2ccc(C#N)cc2)n1 (stereo not drawn) ?
1.27

And the next one, O=C1CSC(c2c(F)cccc2F)N1c1ncnc2[nH]cnc12 (stereo not drawn) ?
1.11

And the next one, Cc1cc(N2C(=O)CSC2c2ccc(C#N)cc2)no1 (stereo not drawn) ?
1.57

And the next one, N#Cc1ccc(N2C(=O)CSC2c2c(Cl)cccc2Cl)nc1 (stereo not drawn) ?
2.92

And the next one, N#Cc1ccc(C2SCC(=O)N2c2ccc(C#N)cn2)cc1 (stereo not drawn) ?
2.38

And the next one, O=C1CSC(c2c(Cl)cccc2Cl)N1Nc1ccccn1 (stereo not drawn) ?
150

And the next one, O=C1CSC(c2c(F)cccc2Cl)N1Nc1ccccn1 (stereo not drawn) ?
72.7
